- SYSTEM: B-Raf (V600E)-kinase (Homo sapiens (Human), UniProt P15056, V600E)
- Sequence (P15056 whole entry V600E): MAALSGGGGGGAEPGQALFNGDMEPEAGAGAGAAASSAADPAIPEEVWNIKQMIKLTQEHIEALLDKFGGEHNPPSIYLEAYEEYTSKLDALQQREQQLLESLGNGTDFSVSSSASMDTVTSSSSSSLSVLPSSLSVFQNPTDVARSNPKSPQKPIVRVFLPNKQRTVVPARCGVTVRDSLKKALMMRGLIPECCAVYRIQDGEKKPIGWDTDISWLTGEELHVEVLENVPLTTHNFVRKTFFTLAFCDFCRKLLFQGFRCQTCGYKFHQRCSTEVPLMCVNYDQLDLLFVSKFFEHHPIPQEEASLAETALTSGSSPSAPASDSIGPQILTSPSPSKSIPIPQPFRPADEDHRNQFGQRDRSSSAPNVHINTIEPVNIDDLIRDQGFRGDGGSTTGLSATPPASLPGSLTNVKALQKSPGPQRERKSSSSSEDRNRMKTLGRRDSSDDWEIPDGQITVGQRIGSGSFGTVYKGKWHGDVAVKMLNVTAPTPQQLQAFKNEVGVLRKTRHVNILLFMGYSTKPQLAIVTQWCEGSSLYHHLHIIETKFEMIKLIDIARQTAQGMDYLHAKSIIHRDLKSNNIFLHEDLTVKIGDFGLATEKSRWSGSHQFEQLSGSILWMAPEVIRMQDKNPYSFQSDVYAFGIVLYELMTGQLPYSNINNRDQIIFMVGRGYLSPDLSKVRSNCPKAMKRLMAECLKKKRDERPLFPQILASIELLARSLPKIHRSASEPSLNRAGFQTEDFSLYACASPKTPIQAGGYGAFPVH
- ASSAY_NOTES: Kinase test B-RAF (V600E)
- Assay type: biochemical
- CONDITIONS: B-RAF (V600E) kinase test, 250 μM ATP
ASSAY_ENDPOINT: IC50 (nM)

Check the records and state IC50 for Cc1ccc(C(=O)Nc2ccc(N(C)CCN(C)C)c(C(F)(F)F)c2)cc1Nc1ncnc2cnc(NCc3cccnc3)nc12
2

a. Cc1ccc(NS(=O)(=O)CC2CC2)cc1Nc1ncnc2cnc(N3CCN(C)CC3)nc12
b. Cc1ccc(NC(=O)c2cccc(C(F)(F)F)c2)cc1Nc1ncnc2c(N)nc(NCc3cccnc3)nc12
c. Cc1ccc(C(=O)Nc2cccc(C(C)(C)C)c2)cc1Nc1ncnc2c(N)nc(N3CCN(C)CC3)nc12
d. COc1ccc(C(=O)Nc2cc(C(C)(C)C)on2)cc1Nc1ncnc2cnc(N(C)C)nc12
// ranking: key=IC50, reverse=True Your reply should list the labels following the order given in the request.
a, b, d, c

I. Cc1ccc(NC(=O)c2cc(C(C)(C)C)nn2C)cc1Nc1ncnc2cnc(N(C)CCCN(C)C)nc12
II. Cc1ccc(C(=O)Nc2cc(C(C)(C)C)nn2C)cc1Nc1ncnc2cnc(NCC(C)C)nc12
III. Cc1ccc(NC(=O)c2cccc(C(C)(C)C#N)c2)cc1Nc1ncnc2cnc(N(C)C3CCOC3)nc12 (stereo not shown)
IV. Cc1ccc(C(=O)n2nc(C(C)(C)C)cc2N)cc1Nc1ncnc2cnc(NC3CCOC3)nc12 (stereo not shown)
Order the items by recorded IC50; the first position goes to the largest value. In plain terms: list the labels in the order you were asked to.
I, IV, II, III
(I: 72 nM, IV: 20 nM, II: 3 nM, III: 1 nM)

I. Cc1ccc(C(=O)Nc2cccc(N(C)C)c2)cc1Nc1ncnc2cnc(N(C)CCN(C)C)nc12
II. Cc1ccc(NC(=O)c2cccc(C(C)(C)C#N)c2)cc1Nc1ncnc2cnc(N(C)CC3CCOCC3)nc12
III. Cc1ccc(C(=O)Nc2cccc(C(C)(C)C)c2)cc1Nc1ncnc2cnc(N3CCCC3)nc12
Arrange by IC50, high to low. // rank by listing labels in the order requested
I, II, III

I. Cc1cn(-c2cc(NC(=O)c3ccc(C)c(Nc4ncnc5cnc(N6CC[C@H](F)C6)nc45)c3)cc(C(F)(F)F)c2)cn1
II. COCCN1CCN(c2ncc3ncnc(Nc4cc(C(=O)Nc5cc(C(F)(F)F)ccc5-n5ccnn5)ccc4C)c3n2)CC1
Lower value for measured IC50? Options: I , II Label of pick, please.
I
(I: 4 nM, II: 12 nM)

====

- SYSTEM: B-Raf (V600E)-kinase (Homo sapiens (Human), UniProt P15056, V600E)
- ASSAY_NOTES: Kinase test B-RAF (V600E)
- Assay type: biochemical
- CONDITIONS: B-RAF (V600E) kinase test, 250 μM ATP
- Procedure: Kinase Test B-RAF (V600E) In a dilution series 10 μL of test substance solution are placed in a multiwell plate. The dilution series is selected so that generally a range of concentrations of 2 μM to 0.119 nM or 0.017 nM is covered. […] After the addition of 200 μL Enhancement Solution (Perkin Elmer, #4001-0010/#1244-105) the mixture is shaken for 10 min at RT and then measured in a Wallac Victor using the program “Delfia Time Resolved Fluorescence (Europium)”. […]
pIC50: −log10 of the molar value.
ASSAY_ENDPOINT: pIC50

Example results:
Specify reported pIC50 for the molecule shown: CC(C)(C#N)c1cccc(C(=O)Nc2cccc(Nc3ncnc4c(N)ncnc34)c2)c1
7.52

Item Cc1ccc(NC(=O)c2cccc(C(C)(C)C#N)c2)cc1Nc1ncnc2cnc(N(C)CCCN(C)C)nc12 : provide pIC50
8.70

Consider the molecule COc1ccc(NC(=O)c2ccc(C(F)(F)F)c(Nc3ncnc4cnc(NCCN5CCOCC5)nc34)c2)cc1C(F)(F)F . State its measured pIC50.
6.50

Specify pIC50 for CCN1CCN(c2cc(NC(=O)c3ccc(C)c(Nc4ncnc5c(N)nc(N6CCCOCC6)nc45)c3)cc(C(F)(F)F)c2)CC1 and stop.
8.52

Provide measured pIC50 value, entry: CC(C)(C)c1cc(NC(=O)c2ccc(Cl)c(Nc3ncnc4cnc(NCCCN5CCOCC5)nc34)c2)no1
9.00

P. Cc1ccc(NC(=O)c2cccc(C(F)(F)F)c2)cc1Nc1ncnc2c(N)nc(N3C[C@H](C)NC[C@H]3C)nc12
Q. Cc1ccc(C(=O)Nc2cc(C(F)(F)F)ccn2)cc1Nc1ncnc2cnc(NCc3ccccc3)nc12
Lower value for measured pIC50? Options: P , Q Return value: the label identifying the chosen record.
P

I. Cc1ccc(C(=O)Nc2cc(CN3CCCC3)cc(C(F)(F)F)c2)cc1Nc1ncnc2cnc(N3CCSCC3)nc12
II. Cc1ccc(C(=O)Nc2ccc(C(F)(F)F)cc2)cc1Nc1ncnc2c(N)nc(NCCN(C)C)nc12
III. Cc1ccc(C(=O)Nc2cc(C(C)(C)C)n[nH]2)cc1Nc1ncnc2c(N)nc(N3CCN4CCCC4C3)nc12 (centres unmarked)
IV. Cc1ccc(NS(=O)(=O)CCC(F)(F)F)cc1Nc1ncnc2cnc(N3CCN(C)CC3)nc12
V. COc1ccc(C(C)(C)C)cc1NC(=O)c1ccc(C)c(Nc2ncnc3cnc(N4CCCCC4)nc23)c1
Please list these in order of increasing pIC50. Thank you! Field: ranking. Enter the labels in the order requested.
IV, II, V, I, III

A. Cc1ccc(C(=O)Nc2cc(C(C)(C)C)n[nH]2)cc1Nc1ncnc2cnc(N3CCC(CN4CCCC4)CC3)nc12
B. Cc1ccc(C(=O)NCc2cccc(C(F)(F)F)c2)cc1Nc1ncnc2cnc(N3CCCC3)nc12
C. Cc1ccc(C(=O)Nc2cc(N(C)CCN(C)C)cc(C(F)(F)F)c2)cc1Nc1ncnc2cnc(N3CC[C@H](F)C3)nc12
Sort entries by pIC50 from minimum to maximum value. Give the labels in the order requested.
B, C, A
(B: 7.21, C: 8.22, A: 8.52)

====

Entries annotated with measured pIC50
- SYSTEM: B-Raf (V600E)-kinase (Homo sapiens (Human), UniProt P15056, V600E)
- ASSAY_NOTES: Kinase test B-RAF (V600E)
- Assay type: biochemical
- CONDITIONS: B-RAF (V600E) kinase test, 250 μM ATP
- Description: Kinase Test B-RAF (V600E) In a dilution series 10 μL of test substance solution are placed in a multiwell plate. The dilution series is selected so that generally a range of concentrations of 2 μM to 0.119 nM or 0.017 nM is covered. […] After the addition of 200 μL Enhancement Solution (Perkin Elmer, #4001-0010/#1244-105) the mixture is shaken for 10 min at RT and then measured in a Wallac Victor using the program “Delfia Time Resolved Fluorescence (Europium)”. […]
pIC50: −log10 of the molar value.

Sample answers from the record:
Given Cc1ccc(C(=O)Nc2cccc(C(C)(C)C)c2)cc1Nc1ncnc2cnc(N3CCCN(C)CC3)nc12 , respond with its pIC50.
> 9.00

Return reported pIC50. Input molecule: Cc1ccc(C(=O)Nc2cccc(C(F)(F)F)c2)cc1Nc1ncnc2c(N)nc(N3CCN(C4CCCC4)CC3)nc12
> 9.00

Okay, now this molecule:
Read off the recorded pIC50 for COc1ccc(NC(=O)c2ccc(C)c(Nc3ncnc4cnc(NC5CCOC5)nc34)c2)cc1C(F)(F)F (stereo not drawn)
> 9.00

====

- SYSTEM: B-Raf (V600E)-kinase (Homo sapiens (Human), UniProt P15056, V600E)
- ASSAY_NOTES: Kinase test B-RAF (V600E)
- Assay type: biochemical
- CONDITIONS: B-RAF (V600E) kinase test, 250 μM ATP
ASSAY_ENDPOINT: IC50 (nM)

# count of solved cases: 7
Give the reported IC50 for this compound. COc1ncc2ncnc(Nc3cc(C(=O)Nc4cc(C(C)(C)C)nn4C)ccc3C)c2n1 [III-565]
11

Tell me its IC50 given Cc1ccc(C(=O)NCc2cccc(C(C)(C)C)c2)cc1Nc1ncnc2cnc(N3CCOCC3)nc12 [III-327] as the entry.
56

Complete the entry with IC50 for Cc1ccc(C(=O)Nc2cc(C(C)(C)C)n[nH]2)cc1Nc1ncnc2c(N)nc(N3CCN(C4CCN(C)CC4)CC3)nc12 [I-12]
2

Give IC50 for Cc1ccc(C(=O)Nc2cc(C(C)(C)C)on2)cc1Nc1ncnc2c(N)nc(N3CCN(C)CC3)nc12 [I-9]
3

Fill in reported IC50 for this entry: CNc1ncnc2c(Nc3cccc(NC(=O)c4cccc(C(C)(C)C#N)c4)c3)ncnc12 [VIII-3]
13

Write down IC50 measured for item COCCN1CCC(Nc2ncc3ncnc(Nc4cc(C(=O)Nc5cc(C(C)(C)C)on5)ccc4C)c3n2)CC1 [III-594]
1

Identify the reported IC50 for the following entry. COc1ccc(C(C)(C)C)cc1NC(=O)c1ccc(C)c(Nc2ncnc3cnc(N4CCCN(C)CC4)nc23)c1 [III-225]
2

1. Cc1ccc(C(=O)Nc2cc(C(C)(C)C)on2)cc1Nc1ncnc2cnc(N3CC(F)(F)C3)nc12 [III-366]
2. COCCN(C)c1ncc2ncnc(Nc3cc(C(=O)Nc4cccc(C(F)(F)F)c4)ccc3C)c2n1 [III-467]
3. COc1ccc(NC(=O)c2ccc(F)c(Nc3ncnc4cnc(N(C)CCN5CCCC5)nc34)c2)cc1C(F)(F)F [III-33]
4. COc1c(NC(=O)c2ccc(C)c(Nc3ncnc4cnc(N5CCCC5)nc34)c2)cc(C(C)(C)C)cc1NS(C)(=O)=O [III-277]
5. Cc1ccc(C(=O)Nc2cc(CN3CCCC3)cc(C(F)(F)F)c2)cc1Nc1ncnc2cncnc12 [V-8]
Please list these in order of increasing IC50. Thank you! Put the labels in the requested order and write them down.
3, 2, 5, 1, 4
